test system: H929 multiple myeloma tumour line; experiment: In vitro cytotoxicity, Microculture Tetrazolium Assay; assay type: cell-based; conditions: H929 cells, 48 hours exposure, MTT; read-out: IC50 (μM) MTT H929
assayEndpoint: IC50 (µM)
Give the number; µM is assumed, so skip it.

// solved cases for IC50 follow
CCc1ccccc1-c1nccc(COc2ccccc2C[C@@H](Oc2ncnc3sc(-c4ccc(F)cc4)c(-c4ccc(OCCN5CCN(C)CC5)c(Cl)c4C)c23)C(=O)O)n1 [Example 726] : 0.011
CCc1sc2ncnc(O[C@H](Cc3ccccc3)C(=O)O)c2c1-c1ccc(OCCN(C)C)c(Cl)c1C [Example 408] : 15.9
Cc1c(-c2c(-c3ccco3)sc3ncnc(O[C@H](Cc4ccccc4OCc4cc(C5CC5)nn4C)C(=O)O)c23)ccc(OCCN2CCN(C)CC2)c1Cl [Example 226] : 0.311
CC#Cc1sc2ncnc(O[C@H](Cc3ccccc3OC)C(=O)O)c2c1-c1cc(C)c(OCCN2CCN(C)CC2)c(Cl)c1C [Example 475] : 1.12
COc1ccc(-c2sc3ncnc(OC(Cc4ccccc4OCc4ccnc(-c5ccccc5OC)n4)C(=O)O)c3c2-c2ccc(OCCN3CCN(C)CC3)c(Cl)c2C)cc1 (single isomer, unassigned) [Example 761] : 0.148

Continue with the compound presented below.
Prompt: Indicate its recorded IC50; the compound in question is COc1ccccc1C[C@@H](Oc1ncnc2sc(-c3ccc(F)c(F)c3)c(-c3ccc(OCCN4CCN(C)CC4)c(Cl)c3C)c12)C(=O)O [Example 533]
Completion: 0.201

* * *

Tested on: H929 multiple myeloma tumour line
Assay: In vitro cytotoxicity, Microculture Tetrazolium Assay
Format: cell-based
Settings: Homo sapiens, NCI-H929, 48 h, H929 cells, 48 hours exposure, MTT; read-out: IC50 (μM) MTT H929
Experimental: The cytotoxicity studies were carried out on the H929 multiple myeloma tumour line. The cells are distributed onto microplates and exposed to the test compounds for 48 hours.
assayEndpoint: IC50 (µM)
Give the number; µM is assumed, so skip it.

// solved cases for IC50 follow
COc1ccccc1-c1nccc(COc2ccccc2CC(Oc2ncnc3sc(-c4ccc(OCCc5ccccc5)cc4)c(-c4ccc(OCCN5CCN(C)CC5)c(Cl)c4C)c23)C(=O)O)n1 (single isomer, unassigned) : 0.037
COc1cc(F)ccc1CC(Oc1ncnc2sc(-c3ccc(Cl)o3)c(-c3ccc(OCCN4CCN(C)CC4)c(Cl)c3C)c12)C(=O)O (stereo not drawn) : 0.082
Cc1c(-c2c(-c3ccco3)sc3ncnc(OC(Cc4ccccc4OCc4ccnn4C)C(=O)O)c23)ccc(OCCN(C)C)c1Cl (stereo not drawn) : 0.13
CCn1nccc1COc1ccccc1CC(Oc1ncnc2sc(-c3ccc(Cl)o3)c(-c3ccc(OCCN4CCN(C)CC4)c(Cl)c3C)c12)C(=O)O (stereo not drawn) : 0.018

Prompt: Indicate its recorded IC50; the compound in question is Cc1c(-c2c(-c3ccc(F)cc3)sc3ncnc(OC(Cc4ccccc4OCc4ccnc(CC(C)C)n4)C(=O)O)c23)ccc(OCCN2CCN(C)CC2)c1Cl (stereo not drawn)
Completion: 0.016

Prompt: Indicate its recorded IC50; the compound in question is Cc1c(-c2c(-c3ccc(F)o3)sc3ncnc(OC(Cc4ccccc4OCc4ccnc(C5CC5)n4)C(=O)O)c23)ccc(OCCN2CCN(C)CC2)c1Cl (stereo not drawn)
Completion: 0.006

Prompt: Indicate its recorded IC50; the compound in question is CCc1sc2ncnc(OC(Cc3ccccc3)C(=O)O)c2c1-c1cc([N+](=O)[O-])c(OCCN2CCN(C)CC2)c(Cl)c1C (stereo not drawn)
Completion: 11.1

Prompt: Indicate its recorded IC50; the compound in question is COc1cc(COc2ccccc2CC(Oc2ncnc3sc(-c4ccc(F)o4)c(-c4ccc(OCCN5CCN(C)CC5)c(Cl)c4C)c23)C(=O)O)ccn1 (stereo not drawn)
Completion: 0.025

Prompt: Indicate its recorded IC50; the compound in question is CNCCOc1ccc(-c2c(-c3ccco3)sc3ncnc(OC(Cc4ccccc4OC)C(=O)O)c23)c(C)c1Cl (stereo not drawn)
Completion: 0.394

* * *

target: Mcl-1 protein (UniProtKB primary accession number: Q07820) (Homo sapiens, UniProt Q07820); experiment: Inhibition of Mcl-1 by fluorescence polarisation, Method 1; assay type: binding; settings: fluorescence polarisation test; Method 2 values are underlined in the patent (underlining not visible here); read-out: IC50 (M) Mcl-1 FP
Sequence (Q07820 whole entry): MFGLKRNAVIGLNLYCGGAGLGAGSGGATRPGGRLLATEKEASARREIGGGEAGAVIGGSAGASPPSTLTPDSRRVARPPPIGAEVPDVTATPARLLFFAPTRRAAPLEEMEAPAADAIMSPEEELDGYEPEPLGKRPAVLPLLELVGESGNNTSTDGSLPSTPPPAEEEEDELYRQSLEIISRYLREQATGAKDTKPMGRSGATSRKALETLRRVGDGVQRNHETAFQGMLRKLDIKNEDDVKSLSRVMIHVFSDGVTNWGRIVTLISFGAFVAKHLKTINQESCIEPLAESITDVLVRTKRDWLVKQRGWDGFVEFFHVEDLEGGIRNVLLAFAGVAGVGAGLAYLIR
# IC50 annotations
Give the number; M is assumed, so skip it.

COCCn1nncc1COc1ccccc1CC(Oc1ncnc2sc(-c3ccc(F)cc3)c(-c3ccc(OCCN4CCN(C)CC4)c(Cl)c3C)c12)C(=O)O (stereo not drawn) [Example 97] : 3.3e-09
Cc1c(-c2c(-c3ccc(F)o3)sc3ncnc(OC(Cc4ccccc4OCc4ccnc(-c5cccs5)n4)C(=O)O)c23)ccc(OCCN2CCN(C)CC2)c1Cl (stereo not drawn) [Example 171] : 4.1e-09
Cc1c(-c2c(-c3ccc(F)cc3)sc3ncnc(OC(Cc4ccccc4OCc4ccnn4CC(F)(F)F)C(=O)O)c23)ccc(OCCN(C)C)c1Cl (stereo not drawn) [Example 132] : 4.8e-09
Cc1c(-c2c(-c3ccco3)sc3ncnc(OC(Cc4ccccc4OCc4nccn4C)C(=O)O)c23)ccc(OCCN2CCN(C)CC2)c1Cl (stereo not drawn) [Example 287] : 8.3e-09
Cc1c(-c2c(-c3ccc(Cl)o3)sc3ncnc(OC(Cc4ccccc4OCc4ccnn4CC(F)(F)F)C(=O)O)c23)ccc(OCCN2CCN(C)CC2)c1Cl (stereo not drawn) [Example 373] : 4.6e-09

Prompt: Indicate its recorded IC50; the compound in question is Cc1c(-c2c(-c3ccco3)sc3ncnc(OC(Cc4ccccc4OCc4ccc(Cl)cn4)C(=O)O)c23)ccc(OCCN2CCN(C)CC2)c1Cl (stereo not drawn) [Example 231]
Completion: 1e-08

Prompt: Indicate its recorded IC50; the compound in question is COCCOCCOCCOc1ccccc1CC(Oc1ncnc2sc(-c3ccc(F)o3)c(-c3ccc(OCCN4CCN(C)CC4)c(Cl)c3C)c12)C(=O)O (stereo not drawn) [Example 197]
Completion: 5.4e-09

Prompt: Indicate its recorded IC50; the compound in question is Cc1c(-c2c(-c3ccc(F)o3)sc3ncnc(OC(Cc4ccccc4OCC(F)(F)F)C(=O)O)c23)ccc(OCCN2CCN(C)CC2)c1Cl (stereo not drawn) [Example 158]
Completion: 4.6e-09

Prompt: Indicate its recorded IC50; the compound in question is Cc1c(-c2c(-c3ccc(Cl)o3)sc3ncnc(OC(Cc4ccccc4OCc4ccnc(C(F)(F)F)n4)C(=O)O)c23)ccc(OCCN2CCN(C)CC2)c1Cl (stereo not drawn) [Example 367]
Completion: 3.2e-09

Prompt: Indicate its recorded IC50; the compound in question is CCOc1nccc(COc2ccccc2CC(Oc2ncnc3sc(-c4ccc(F)cc4)c(-c4ccc(OCCN5CCN(C)CC5)c(Cl)c4C)c23)C(=O)O)n1 (stereo not drawn) [Example 57]
Completion: 5e-09

Prompt: Indicate its recorded IC50; the compound in question is Cc1c(-c2c(-c3ccco3)sc3ncnc(O[C@H](Cc4ccccc4C(F)(F)F)C(=O)O)c23)ccc(OCCN2CCN(C)CC2)c1Cl [Example 353]
Completion: 2.8e-08

Prompt: Indicate its recorded IC50; the compound in question is Cc1c(-c2c(-c3ccco3)sc3ncnc(OC(Cc4ccccc4OCc4ncc(-c5ccccc5)cn4)C(=O)O)c23)ccc(OCCN2CCN(C)CC2)c1Cl (stereo not drawn) [Example 283]
Completion: 2.6e-08

* * *

tested on: H929 multiple myeloma tumour line; test: In vitro cytotoxicity, Microculture Tetrazolium Assay; assay type: cell-based; details: Homo sapiens, NCI-H929, 48 h, H929 cells, 48 hours exposure, MTT; read-out: IC50 (μM) MTT H929
Labelling field: enter yes if recorded IC50 is less than 0.3 µM. Enter no if it equals or exceeds that cut-off.

Example entries begin here.
COc1ccccc1CC(Oc1ncnc2sc(-c3ccc(F)cc3F)c(-c3ccc(OCCN4CCN(C)CC4)c(Cl)c3C)c12)C(=O)O (stereo not drawn) : no
COc1ccccc1CC(Oc1ncnc2sc(-c3ccc(F)cc3)c(-c3ccc(OCCN4CCN(C)CC4)c(Cl)c3C)c12)C(=O)OCc1oc(=O)oc1C (stereo not drawn) : yes

Prompt: Below 0.3 µM on IC50? Entry Cc1c(-c2c(-c3ccco3)sc3ncnc(OC(Cc4ccccc4OCC4CC4)C(=O)O)c23)ccc(OCCN2CCN(C)CC2)c1Cl (stereo not drawn)
Completion: yes

Prompt: Below 0.3 µM on IC50? Entry COc1cc(F)ccc1CC(Oc1ncnc2sc(-c3ccc(F)o3)c(-c3ccc(OCCN4CCN(C)CC4)c(Cl)c3C)c12)C(=O)O (stereo not drawn)
Completion: yes

* * *

System: H929 multiple myeloma tumour line
Experiment: In vitro cytotoxicity, Microculture Tetrazolium Assay
Assay type: cell-based
Conditions: Homo sapiens, NCI-H929, 48 h, H929 cells, 48 hours exposure, MTT; read-out: IC50 (μM) MTT H929
Experimental: The cytotoxicity studies were carried out on the H929 multiple myeloma tumour line. The cells are distributed onto microplates and exposed to the test compounds for 48 hours.
# log10 of IC50 annotations
// units: µM (pre-log); metric: IC50; scale: log10

CCc1ccc(-c2sc3ncnc(OC(Cc4ccccc4OC)C(=O)O)c3c2-c2ccc(OCCN3CCN(C)CC3)c(Cl)c2C)o1 (stereo not shown) : -0.12
COCCCSc1nccc(COc2ccccc2CC(Oc2ncnc3sc(-c4ccc(F)cc4)c(-c4ccc(OCCN5CCN(C)CC5)c(Cl)c4C)c23)C(=O)O)n1 (stereo not shown) : -1.43
Cc1c(-c2c(-c3ccc(F)cc3)sc3ncnc(OC(Cc4ccccc4OCc4cocn4)C(=O)O)c23)ccc(OCCN2CCN(C)CC2)c1Cl (stereo not shown) : -0.93
Cc1c(-c2c(-c3ccco3)sc3ncnc(OC(Cc4ccccc4OCc4ccncn4)C(=O)O)c23)ccc(OCCN2CCN(C)CC2)c1Cl (stereo not shown) : -1.15
Cc1c(-c2c(-c3ccc(F)cc3)sc3ncnc(OC(Cc4ccccc4OCc4ccnc(-c5nccs5)n4)C(=O)O)c23)ccc(OCCN2CCN(C)CC2)c1Cl (stereo not shown) : -1.82

Prompt: Indicate its recorded log10 of IC50; the molecule in question is CCc1sc2ncnc(OC(Cc3ccccc3)C(=O)O)c2c1-c1ccc(OCCc2cccnc2)c(Cl)c1C (stereo not shown)
Completion: 1.21

Prompt: Indicate its recorded log10 of IC50; the molecule in question is CCc1sc2ncnc(OC(Cc3ccccc3)C(=O)O)c2c1-c1ccc(OCC(=O)N2CCCC2)c(Cl)c1C (stereo not shown)
Completion: 1.34

Prompt: Indicate its recorded log10 of IC50; the molecule in question is Cc1c(-c2c(-c3ccco3)sc3ncnc(OC(Cc4ccccc4OCc4ccnn4C4CCCC4)C(=O)O)c23)ccc(OCCN2CCN(C)CC2)c1Cl (stereo not shown)
Completion: -1.64

Prompt: Indicate its recorded log10 of IC50; the molecule in question is Cc1ncccc1-c1nccc(COc2ccccc2CC(Oc2ncnc3sc(-c4ccc(F)cc4)c(-c4ccc(OCCN5CCN(C)CC5)c(Cl)c4C)c23)C(=O)O)n1 (stereo not shown)
Completion: -2.15

Prompt: Indicate its recorded log10 of IC50; the molecule in question is COc1ccccc1CC(Oc1ncnc2sc(-c3cc(F)c(F)c(F)c3F)c(-c3ccc(OCCN4CCN(C)CC4)c(Cl)c3C)c12)C(=O)O (stereo not shown)
Completion: -0.12

Prompt: Indicate its recorded log10 of IC50; the molecule in question is Cc1c(-c2c(-c3ccco3)sc3ncnc(OC(Cc4ccccc4OCc4cn(Cc5ccccc5)nn4)C(=O)O)c23)ccc(OCCN2CCN(C)CC2)c1Cl (stereo not shown)
Completion: -0.05

Prompt: Indicate its recorded log10 of IC50; the molecule in question is CCOc1ccccc1CC(Oc1ncnc2sc(-c3ccco3)c(-c3ccc(OCCN4CCN(C)CC4)c(Cl)c3C)c12)C(=O)O (stereo not shown)
Completion: -0.69

Prompt: Indicate its recorded log10 of IC50; the molecule in question is Cc1c(-c2c(-c3ccc(F)o3)sc3ncnc(OC(Cc4ccccc4OCc4ccnc(N5CCOCC5)n4)C(=O)O)c23)ccc(OCCN(C)C)c1Cl (stereo not shown)
Completion: -2.05
